The measurements presented in this section are drawn from PubChem BioAssay AID720555.

Target: RecQ-like DNA helicase BLM (Homo sapiens) (UniProt P54132)
Sequence (P54132 whole entry, looked up): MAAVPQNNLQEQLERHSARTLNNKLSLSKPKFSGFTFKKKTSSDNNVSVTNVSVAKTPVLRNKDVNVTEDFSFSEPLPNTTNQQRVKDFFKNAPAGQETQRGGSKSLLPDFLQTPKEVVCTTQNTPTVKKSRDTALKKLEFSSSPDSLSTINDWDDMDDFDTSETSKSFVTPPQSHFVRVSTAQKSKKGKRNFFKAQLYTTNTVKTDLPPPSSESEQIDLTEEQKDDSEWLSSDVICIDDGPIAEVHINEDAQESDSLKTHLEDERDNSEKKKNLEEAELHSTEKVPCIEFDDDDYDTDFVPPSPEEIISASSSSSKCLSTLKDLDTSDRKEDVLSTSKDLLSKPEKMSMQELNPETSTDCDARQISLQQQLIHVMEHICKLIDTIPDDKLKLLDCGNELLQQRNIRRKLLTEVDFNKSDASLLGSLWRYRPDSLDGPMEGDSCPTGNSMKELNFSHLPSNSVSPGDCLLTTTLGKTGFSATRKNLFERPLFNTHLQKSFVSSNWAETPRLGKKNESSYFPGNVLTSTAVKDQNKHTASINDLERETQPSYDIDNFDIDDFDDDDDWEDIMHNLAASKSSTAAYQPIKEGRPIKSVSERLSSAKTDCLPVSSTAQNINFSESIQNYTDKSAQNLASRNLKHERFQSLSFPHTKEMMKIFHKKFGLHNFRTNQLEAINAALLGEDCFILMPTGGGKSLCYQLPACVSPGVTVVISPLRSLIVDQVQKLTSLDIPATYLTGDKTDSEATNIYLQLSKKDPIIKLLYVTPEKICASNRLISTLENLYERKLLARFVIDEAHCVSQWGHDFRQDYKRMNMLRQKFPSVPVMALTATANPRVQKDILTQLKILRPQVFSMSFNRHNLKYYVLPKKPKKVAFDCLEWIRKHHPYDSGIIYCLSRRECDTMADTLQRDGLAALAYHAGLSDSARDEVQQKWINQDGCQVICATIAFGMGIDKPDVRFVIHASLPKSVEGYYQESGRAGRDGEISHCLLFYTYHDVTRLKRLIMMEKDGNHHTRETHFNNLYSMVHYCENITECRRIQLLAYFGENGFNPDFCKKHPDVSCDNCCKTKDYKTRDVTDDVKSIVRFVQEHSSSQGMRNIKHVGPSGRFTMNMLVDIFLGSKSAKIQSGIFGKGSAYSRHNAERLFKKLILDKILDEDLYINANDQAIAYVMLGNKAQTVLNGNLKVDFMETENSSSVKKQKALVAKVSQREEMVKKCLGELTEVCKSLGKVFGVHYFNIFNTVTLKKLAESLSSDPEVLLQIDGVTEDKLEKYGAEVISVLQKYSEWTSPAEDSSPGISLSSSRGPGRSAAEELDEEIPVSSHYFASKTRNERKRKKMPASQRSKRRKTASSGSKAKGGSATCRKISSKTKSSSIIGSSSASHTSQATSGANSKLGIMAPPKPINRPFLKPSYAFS
Assay: qHTS for Inhibitors of Bloom's syndrome helicase (BLM): Helicase DNA unwinding fluorescent orthogonal confirmatory assay for SAR
Conditions: fluorescence, orthogonal confirmation; series mostly up to 55.6 µM
Results filed as inconclusive are left out. The source made the active and inactive calls. Calls follow the shape of the dose curve; as a rule, active = well fitted inhibition curve with a large enough effect; inconclusive = small, poorly fitted or top-dose-only effect; inactive = no such curve, though single readings can be large or run the other way.
Classes used: True for active, False for inactive

| GIVEN_SMILES | CAT |
| --- | --- |
| O=C(Nc1ccc2ccccc2c1)Nc1nnc(-c2ccncc2)o1 | False |
| O=S(=O)(Cc1ccc(Cl)c(Cl)c1)Nc1nnc(-c2ccncc2)s1 | False |
| O=C(NCc1ccccc1)Nc1nnc(-c2ccncc2)s1 | False |
| O=C(Nc1ccc(Br)c(Br)c1)Nc1nnc(-c2cccnc2)s1 | True |

* * *

Biological target: RecQ-like DNA helicase BLM (Homo sapiens)
Test: qHTS for Inhibitors of Bloom's syndrome helicase (BLM): Helicase DNA unwinding fluorescent orthogonal confirmatory assay for SAR
Details: fluorescence, orthogonal confirmation; series mostly up to 55.6 µM
Text: Human RecQ DNA helicases participate in maintenance of genome stability and DNA repair. While other types of helicases have been explored as targets for drug development, members of the RecQ family have remained less well characterized. Mutations of the Bloom helicase gene have been associated with the rare human genetic disease called Bloom syndrome. […] A fluorescence-based, biochemical assay in 1536 well format was developed to evaluate inhibition of BLM DNA unwinding activity. […]
Results filed as inconclusive are left out. Calls of active or inactive are those of the source. Calls come from the whole dose curve; as a rule, active = well fitted inhibition curve with a large enough effect; inconclusive = small, poorly fitted or top-dose-only effect; inactive = no such curve, though single readings can be large or run the other way.
Classes used: active, inactive

| GIVEN_SMILES | MEASURED_TARGET | CAT |
| --- | --- | --- |
| Cc1cc(NC(=O)Nc2nnc(C3CCCCC3)s2)ccc1Cl | RecQ-like DNA helicase BLM (Homo sapiens) | inactive |
| Cc1cc(NC(=O)Nc2nnc(-c3cccnc3)s2)ccc1Br | RecQ-like DNA helicase BLM (Homo sapiens) | active |
| O=C(Nc1ccc(Cl)c(Cl)c1)Nc1nnc(C2CCCCC2)s1 | RecQ-like DNA helicase BLM (Homo sapiens) | inactive |
| N#Cc1cccc(NC(=O)Nc2nnc(-c3ccncc3)s2)c1 | RecQ-like DNA helicase BLM (Homo sapiens) | active |
| O=C(Nc1ccc2ccccc2c1)Nc1nnc(-c2ccncc2)s1 | RecQ-like DNA helicase BLM (Homo sapiens) | active |
| O=C(Nc1ccc(Br)c(Br)c1)Nc1nnc(-c2ccncc2)s1 | RecQ-like DNA helicase BLM (Homo sapiens) | active |
| Cc1ccc(-c2nnc(NC(=O)Nc3ccc4ccccc4c3)s2)cc1 | RecQ-like DNA helicase BLM (Homo sapiens) | inactive |
| Cc1cc(NC(=O)Nc2nnc(-c3ccncc3)s2)ccc1-c1cn[nH]c1 | RecQ-like DNA helicase BLM (Homo sapiens) | active |
| S=C(Nc1ccc(Cl)c(Cl)c1)Nc1nnc(-c2ccncc2)s1 | RecQ-like DNA helicase BLM (Homo sapiens) | active |
| O=C(Nc1ccc(Cl)c(Cl)c1)Nc1nc(-c2ccncc2)cs1 | RecQ-like DNA helicase BLM (Homo sapiens) | active |
| O=C(Nc1ccc2ccccc2c1)Nc1cccc(-c2ccncc2)n1 | RecQ-like DNA helicase BLM (Homo sapiens) | active |
| O=C(Nc1ccc(F)c(C(F)(F)F)c1)Nc1ccc(-c2ccncc2)s1 | RecQ-like DNA helicase BLM (Homo sapiens) | inactive |
| O=C(Nc1ccc(Cl)c(Cl)c1)Nc1ncc(-c2ccncc2)s1 | RecQ-like DNA helicase BLM (Homo sapiens) | inactive |
| O=C(Nc1ccc(F)c(F)c1)Nc1nnc(-c2ccncc2)s1 | RecQ-like DNA helicase BLM (Homo sapiens) | active |
| O=C(Nc1cc(C(F)(F)F)cc(C(F)(F)F)c1)Nc1nnc(-c2ccncc2)s1 | RecQ-like DNA helicase BLM (Homo sapiens) | active |
| Cc1cc(NC(=O)Nc2nnc(-c3ccncc3)s2)ccc1C#N | RecQ-like DNA helicase BLM (Homo sapiens) | active |
| O=c1c(Nc2ccc(Br)c(Br)c2)c(Nc2nnc(-c3ccncc3)s2)c1=O | RecQ-like DNA helicase BLM (Homo sapiens) | active |
| Cc1cc(NC(=O)Nc2nnc(-c3ccncc3)s2)ccc1Cl | RecQ-like DNA helicase BLM (Homo sapiens) | active |
| O=C(Nc1ccc(Cl)c(Cl)c1)N1CCN(c2ccncc2)CC1 | RecQ-like DNA helicase BLM (Homo sapiens) | inactive |
| O=C(Nc1ccc2ccccc2c1)Nc1nnc(-c2ccc(F)cc2)s1 | RecQ-like DNA helicase BLM (Homo sapiens) | inactive |
| O=C(Nc1ccc2ccccc2c1)Nc1nnc(C2CCCCC2)s1 | RecQ-like DNA helicase BLM (Homo sapiens) | inactive |
| Cc1cc(NC(=O)Nc2nnc(-c3ccncc3)s2)ccc1F | RecQ-like DNA helicase BLM (Homo sapiens) | active |
| N#Cc1ccc(NC(=O)Nc2nnc(-c3ccncc3)s2)cc1 | RecQ-like DNA helicase BLM (Homo sapiens) | active |
